# Test system: MOLM-13 cells
# test summary: MOLM-13 Cellular Assay
# Type: cell-based
# assay conditions: Homo sapiens, 72 hours exposure, cell viability by CellTiter-Glo
Criterion: EC50 strictly under 0.02 µM. Met: yes (1). Not met: no (0).

In: Please determine if `CCn1c(CO)nn(-c2nc(O[C@@H](C)C(F)(F)F)c(C(=O)Nc3cc(C)ncc3F)cc2F)c1=O` is below 0.02 µM in terms of EC50.
Out: no (0)

In: Criterion: EC50 strictly below 0.02 µM. Is it met by `CCn1c(CF)nn(-c2nc(OC(C)C)c(C(=O)Nc3c(C)n[nH]c3Cl)cc2F)c1=O` ?
Out: yes (1)

In: Please let me know if `CCn1c(CO)nn(-c2nc(O[C@@H](C)C(F)(F)F)c(C(=O)Nc3cc(C)ccc3F)cc2F)c1=O` shows EC50 below 0.02 µM.
Out: yes (1)

In: Would you kindly verify if EC50 of `CCn1c(CO)nn(-c2nc(O[C@@H](C)C(F)(F)F)c(C(=O)Nc3cnsc3)cc2F)c1=O` is strictly less than 0.02 µM?
Out: no (0)

In: Problem: For the compound `CCn1c(C(C)(C)O)nn(-c2nc(O[C@@H](C)C(F)(F)F)c(C(=O)Nc3c(C)n[nH]c3C(F)(F)F)cc2F)c1=O` , is EC50 under 0.02 µM?
Out: yes (1)

In: Find out if reported EC50 for `CCn1c(CO)nn(-c2nc(O[C@@H](C)C(F)(F)F)c(C(=O)Nc3c(C)ncnc3Cl)cc2F)c1=O` is less than 0.02 µM
Out: no (0)

In: Hello, is EC50 of the following compound strictly smaller than 0.02 µM? `CCn1c(CO)nn(-c2nc(O[C@@H](C)C(F)(F)F)c(C(=O)Nc3nccnc3Cl)cc2F)c1=O`
Out: no (0)

In: Given the entry `Cc1[nH]nc(Cl)c1NC(=O)c1cc(F)c(-n2nc(CF)n(CCCO)c2=O)nc1O[C@@H](C)C(F)(F)F` , would its reported EC50 be below 0.02 µM?
Out: yes (1)

In: Regarding `CCn1c(CO)nn(-c2nc(O[C@@H](C)C(F)(F)F)c(C(=O)Nc3cc(F)cnc3Cl)cc2F)c1=O` , kindly confirm whether its EC50 is beneath 0.02 µM.
Out: no (0)

In: Quick check: does `Cc1ccnc(Cl)c1NC(=O)c1cc(F)c(-n2nc(CO)n(CC(F)F)c2=O)nc1O[C@@H](C)C(F)(F)F` have EC50 under 0.02 µM?
Out: yes (1)

In: Hi there! Is EC50 for `CCn1c(CO)nn(-c2nc(O[C@@H](C)C(F)(F)F)c(C(=O)Nc3cc(C)cnc3F)cc2F)c1=O` below 0.02 µM, do you know?
Out: no (0)

In: Below 0.02 µM on EC50? Entry `CCn1c(CO)nn(-c2nc(O[C@@H](C)C(F)(F)F)c(C(=O)Nc3ccnnc3Cl)cc2F)c1=O`
Out: no (0)

In: Is EC50 of `CCn1c(CO)nn(-c2nc(O[C@@H](C)C(F)(F)F)c(C(=O)Nc3c(C)nn(C)c3C)cc2F)c1=O` strictly below 0.02 µM?
Out: no (0)

In: For this compound, is EC50 lower than 0.02 µM? `CCn1c(CO)nn(-c2nc(O[C@@H](C)C(F)(F)F)c(C(=O)Nc3cc[nH]c(=O)c3Cl)cc2F)c1=O`
Out: no (0)
